These entries and their values trace back to patent US20190192517A1.

# Test system: A375 NRAS Q61R
# assay-name: Models of clinical B-Raf and MEK inhibitor resistance, CellTiter-Glo 72 hours: A375 NRAS Q61R
# Type: cell-based
# test-parameters: Homo sapiens, A-375
readout-name: pIC50
Please treat pIC50 as minus the base-10 logarithm of the molar concentration.

Q) Please look up its pIC50: CC(=O)Nc1cccc(-n2c(=O)n(C3CC3)c(=O)c3c(Nc4ccc(I)cc4F)n(C)c(=O)c(C)c32)c1
A) 7.11
